Sourced from the nanobody polyreactivity screen of Harvey et al. (2022)

- measurement protocol: yeast display, Sf9 membrane polyspecificity reagent, FACS + sequencing; frameworks hold sequencing errors
metric: polyreactivity (PSR sort gate)

>>> result("QGQLVESGGGLVQAGGSLRLSCAASGSSLPYYAMGSYRQAPGKERELVATITDGTDTYYADSVKARFTISRDNAKNTVFLQMNSLKTDDSAVYYCNAYGYVYFLHEDYWGQGTQVTVSS")
"low polyreactivity"
>>> result("QVQLVESGGGLVQAGGSLRLSCAASGRTISYNTMGWYRQARGKERELVARITWGGGSTNYADSVKGSFTISRDNAKNTVYLQMNSLKPEDTAVYYCAREYSSVYWVRHLFYYWGQGTQVTVSS")
"low polyreactivity"
>>> result("QVQLVESGGGLVQAGGSLRLSCAASGSIFIYYAMGWYRQAPGKERELVAAINIGGSTYYADSVKGRFTISRDNAKNTVYFQMNSLKPEDTAVYYCNAATWYRVYPYYIIFDYWGQGTQVTVSS")
"low polyreactivity"
>>> result("QVQLVESGGGLVQAGGSLRLSCSASGRTFRKYAMGWYRQPPGKESELVAAISWSGGSTYYANSVKGRFTISRDNAKNTVYLQMNSLKPEDTAVYYCAAVPVHTGSLYWGFTTGYDYWGQGTQVTVSS")
"low polyreactivity"
>>> result("QVQLVESGGGLVQAGGSLRLSCAASGRTFIANAMGWYRKAPRKERELLAVITLNGGSTYYADSVKGRFTISRDNAKKTVYLQMNSLKPEDTAVYYCNARYYPLYSKSYDSWGQGTQVPVSS")
"low polyreactivity"
>>> result("QVQLVESGGGLVQAGGSLRLSCAASGIIFYDYAMGWYRQAPGKERELVAAITSSGGSTYYADSVKGRFTISRDNAKNTVYLQMNSLKPEDTAVYYCAAATRGSGRRYDYWGQGTQVTVSS")
"high polyreactivity"
>>> result("QVQLVESGGGLVQAGGSLRLSCAASGSTFRPYAKGWYRQAPGKERELVAAISNGGNTNYADSVKGRFSISRDNAKNTVYLQMNSLIPEDTAFYYCAKTFRGQPYLRYRYYYWGQGTQVTVSS")
"high polyreactivity"
>>> result("QVQLVESGGGLVQAGGSLRLSCAASGRILPRNAMGWYRQAPGKERELVAAISWDGGSTYYADSVKGRFTISRDNAKNTVYLPMIRLKPEDTAVYYCATDYPSLHRGMDYWGQGTQVTVSS")
"low polyreactivity"
>>> result("QVQLVESVGGLVQAGGSLRLSCSASGLIFYDYDMGWYRQAPGKERELVAAISNDASTYYAHSVKGRFTISRDNAKNTVYFQMNSLKTEDTAVYFCAAEPYVFGLSSKPFWYNYWGQGTQVTVSS")
"low polyreactivity"
>>> result("QVQLVESGGGLVQAGGSLRLSCAASGSTFGENAMGWYRQAPGKERELVAGINSTGGSTYYADSVKGRFTISRDHAKNNVYLQMNSLNPEDTAVYYCAAGDWYSGNTSHFYYWGQGTQVTVSS")
"low polyreactivity"
>>> result("QVQIVETGGGLVQAGGSLRLSCAASGFIFSNYARGRYRQAPGKERELVAAISWSGGRTYYADSVKGRFTISRDNAKNSVYLQMNSLKPEDTAVYYCATRYGSASGREYEYWGQGTQVTVSS")
"high polyreactivity"

----------
- measurement protocol: yeast display, Sf9 membrane polyspecificity reagent, FACS + sequencing; frameworks hold sequencing errors
metric: polyreactivity (PSR sort gate)

>>> result("QVQLVESGGGLVQAGGILRLSCAASGIIFRVNAMGWYRKAPGKERELVAAISGSGGRTYYADSVKGRFTISRDNAKNTVYLQMNSVKPEDTAVYYCAAHLLHYRGDYWGQGTQETVSS")
"high polyreactivity"
>>> result("QVQLVESGGGLVQAGGSLRLSCAASGFIFGPNAMGWYRQAPGKERELVAAIRWSGSRTYYADSVKGRFTISRDNAKNTVYLQMNSLKPEDTAVYYCATTYGYYTYDYWGQGTQVTVSS")
"high polyreactivity"
>>> result("QVQLVESGGGLVQAGGSLRLSCAASGSTVRYNAMGWYRQARGIERELVAAISYGSSTNYADSVKGRFTISRDNAKNTVFLQMNSLKPEDTAVYYCAAQPGYYDDFYYWGHGTQVTVSS")
"low polyreactivity"
>>> result("QVQLVESGGGLVQAGGSLRLSCAASGSTFEYNVMGWYRQAPGKERELVASITSDGNTNYSDSVKGRFTISRDNAKNTVYLQMNSLKPEDTAVYYCNFYTWHWTFGMDYWGQGTQVTVSS")
"low polyreactivity"
>>> result("QVQLVESGGGLVQAGGSLRLSCAASGRIFAAYAMGWYRQAPGKERELVAAITRRGSTYYADSVKGRFTISRDNDKKTVYFQMNSLKPEDTAVYYCNKVPLFQYSTAWYDYWGQGTQVTVSS")
"high polyreactivity"
>>> result("QVQLVESGGGLVQAGGSLRLSCAASGITFSWYVMGWSRQAPGKERDLVATITNRGGSTYYADSVKGRFTISRDNAKNTVYLQMNSLKPEDTAVYYCAARKKGSRVGYDYWGQGTQVTVSS")
"high polyreactivity"
>>> result("QVQLVESGGGLVQAGGSLRLSCAASGFTFYTYAMGWYRQAPGKERELVAAITSSGGSTYYADSVKGRFTISRDHAKNTVYLQMNSLKPEDTAVYYCKAVSYYLGDDYWGPGTQVTVSS")
"high polyreactivity"
>>> result("QVQLVESGGGLVQGGGSLRLSCAASGFIFRYYAMGWYRQAPGKERELVAAINGRGDSTYYADSVKGRFTISRDNAKNTVYLQMNSLKPEDTAVYYCAAQGYRYLSRDRYDYWGQGTQVTVSS")
"high polyreactivity"
>>> result("QVQLVESGGGLVQAGGSLRLSCAASGSIFYRNAMGWYRQAPGKERELVAAISWSGSRTYYADSVKGRFTISRDNAKNTVYLQMNSLKPEDTAVYYCNRQYNQWIHYYYRMDYWGQGTQVTVSS")
"high polyreactivity"
>>> result("QVHLVESGGGLVQAGGSLRLSCAATGSTFHYYAMGWYRQAPGKEMELVAAISSSGVSTYYADSVKGRFTISRDNAKNTVYLQMNSLKPEDTAVYYCNSASVFHYRWYYYWGHGTQVTVSS")
"high polyreactivity"
>>> result("QVQLVESGGGLVQAGGSLRLSCAASGIIFGYYAMGWYRQAPAKERELVAAISQSGGDTYYADSVKGRYTISRDLAKNTVYLQMNSVKPEDTAVYYCAASVWYYPMDYWGQGTHVTVSS")
"low polyreactivity"
